For each of the compounds below, state its GI50.
- Test system: SF-268
- Protocol Details: NCI tumour cell line growth inhibition, 48 h
The source made the active and inactive calls. No stated cut-off is given here; in the data, active = GI50 up to about 1.1 µM and inactive = higher.

Data request: What value of GI50 has been reported for the following compound? Cc1ccc(C)c(NC(=O)CC2SC(Nc3ccccc3Cl)=NC2=O)c1 (stereo not given)
Data returned: > 100 µM (inactive)

Data request: What value of GI50 has been reported for the following compound? "CCOC(=O)c1sc2c(c1OC(=O)c1ccco1)c(=O)n(-c1ccccc1)c(=S)n2-c1ccccc1"
Data returned: 46.1 µM (inactive)

Data request: What value of GI50 has been reported for the following compound? "Cc1ccc(S(=O)(=O)NC(=O)C2(Br)S(=O)(=O)OCCOS2(=O)=O)cc1"
Data returned: > 100 µM (inactive)

Data request: What value of GI50 has been reported for the following compound? "CC(=O)Nc1ccccc1-c1nc2ccccc2nc1C"
Data returned: > 100 µM (inactive)

Data request: What value of GI50 has been reported for the following compound? "C=CCNC(=O)/C=C\C(=O)O"
Data returned: > 100 µM (inactive)

====

- Test system: LOX IMVI
- Protocol Details: NCI tumour cell line growth inhibition, 48 h
Active and inactive are the calls of the source. Cut-off read from the data, not from the text of the source: active = GI50 up to about 1.1 µM and inactive = higher.
Use one of these outcomes when replying: y for active, n for inactive

Data request: Could you kindly confirm the outcome this assay logged for O=C(CC1SC(Nc2ccccc2Cl)=NC1=O)Nc1ccc(Cl)cc1Cl (configuration not stated) ?
Data returned: n

Data request: Could you kindly confirm the outcome this assay logged for "COc1cc[n+](C)cc1" ?
Data returned: n

Data request: Could you kindly confirm the outcome this assay logged for O=S1(=O)C(c2ccccc2)C(N2CCCCC2)C1C1CC2c3ccccc3C1c1ccccc12 (configuration not stated) ?
Data returned: n

Data request: Could you kindly confirm the outcome this assay logged for "O=[N+]([O-])C(=C(Cl)Cl)C(Cl)=C(Cl)Cl" ?
Data returned: y

Data request: Could you kindly confirm the outcome this assay logged for OCCCc1cc(O)c2c(c1)C(CO)C(c1ccc(O)c(O)c1)O2 (configuration not stated) ?
Data returned: n

Data request: Could you kindly confirm the outcome this assay logged for "O=C(/C=C(\O)C(=O)O)/C=C(\O)c1ccccc1Cl" ?
Data returned: n

Data request: Could you kindly confirm the outcome this assay logged for O=C(O)CSC(CC(=O)c1ccc(Cl)cc1)c1ccc(Cl)cc1 (configuration not stated) ?
Data returned: n

====

- Tested on: BT-549
- Protocol Details: NCI tumour cell line growth inhibition, 48 h
Calls of active or inactive are those of the source. No stated cut-off is given here; in the data, active = GI50 up to about 1.1 µM and inactive = higher.
Measured Parameter: GI50

Data request: What value of GI50 has been reported for the following compound? "CN(C)c1ccc(/C=C2\N=C(NNc3ccccc3)NC2=O)cc1"
Data returned: 30 µM (inactive)

Data request: What value of GI50 has been reported for the following compound? "COc1ccc(/C=C2\C[C@H]3[C@@H]4CCC5=C[C@@H](N6CCCC6)CC[C@]5(C)[C@H]4CC[C@]3(C)[C@H]2O)cc1"
Data returned: 5.85 µM (inactive)

Data request: What value of GI50 has been reported for the following compound? "CC(=O)n1nc(-c2[nH]c(C)c(-c3nn(C(C)=O)c(=S)o3)c2C)oc1=S"
Data returned: > 100 µM (inactive)

Data request: What value of GI50 has been reported for the following compound? "CCN(CC)CCNc1ccc([N+](=O)[O-])c2nc3ccc(OC)cc3c(N)c12"
Data returned: 1.4 µM (inactive)

Data request: What value of GI50 has been reported for the following compound? NC(CSc1nc2ccccn2c1[N+](=O)[O-])C(=O)O (configuration not stated)
Data returned: > 100 µM (inactive)

Data request: What value of GI50 has been reported for the following compound? Cc1ccc2[nH]c3c(c2c1)C1CCC(C(C)(C)C)CC1C1C(=O)N(c2ccc4c(c2)OCO4)C(=O)C31 (configuration not stated)
Data returned: 7.87 µM (inactive)

Data request: What value of GI50 has been reported for the following compound? "Cc1ccc(O)c(/N=N\c2c(O)cc(S(=O)(=O)O)c3ccccc23)c1"
Data returned: 81.7 µM (inactive)
